Known folding stability dG unfold of a selection of sequences
Experiment: folding stability dG unfold (combined trypsin and chymotrypsin); higher = more stable

1) NINPEFMEKIVNEIANRMNQQGWKIKKVDIEPYPNGMIDIKVNGREIEFPWPNGRWFRIKVEAKRVPPEQRS [r1_31_TrROS]: 2.41 kcal/mol

Request: Record request: folding stability dG unfold value, item SAGGSAGGSPAFTVPREVKVGDKPVTVEVDGEGRVTIRTPEGGSESEPVGSPGPAPVAFRITLKSAGGSAGG [r6_241_JUSTAS]
Result: < -1 kcal/mol

Request: How about this sequence: SAGGSKIKIVEVKKNEDGTVTVKVEVEINGKKYTIEARFETLEDGKKVMTLRITNENGEEIEIVLPSAGGSA [r2_376_TrROS_Hall]
Result: 5.12 kcal/mol

Request: Now consider SAGGSAGGSYYMIEIEFPDTGQRITFPFKSLEEAKEFLPPGAPIREIEVQPIKPPVDPEQQNESAGGSAGGS [r12_851_TrROS] .
Result: 1.24 kcal/mol
